EXPERIMENTAL TARGET: γ-secretase (Homo sapiens, UniProt P49768)
EXPERIMENT: Aβ secretion by C99 cells (HEK293 stably expressing APP-C99), γ-secretase inhibitory effect, Aβ ELISA of culture supernatant
Assay type: cell-based
CONDITION PARAMETERS: HEK293, 24 h, Example 9; exposure 0.03 μmol/L; read-out: Aβ (1-42) secretion rate of C99 cells
ENDPOINT: activity at 0.03 µM (%)
Kindly provide the numeric value in % only, without the unit symbol.

Please look up its activity at 0.03 µM: CSCCC(NC(=O)C(NC(=O)C(CC(C)C)CC(O)C(NC(=O)OC(C)(C)C)C(C)O)C(C)C)C(=O)NCc1ccccc1 (stereo not shown) 131

Please look up its activity at 0.03 µM: CSCCC(NC(=O)C(NC(=O)C(CC(C)C)CC(O)C(NC(=O)OC(C)(C)C)C(C)O)C(C)C)C(=O)NC(C)c1ccccc1 (stereo not shown) 71

Please look up its activity at 0.03 µM: CCCCNC(=O)C(CCSC)NC(=O)C(NC(=O)C(CC(C)C)CC(O)C(NC(=O)OC(C)(C)C)C(C)O)C(C)C (stereo not shown) 156

Please look up its activity at 0.03 µM: CSCCC(NC(=O)C(NC(=O)C(CC(C)C)CC(O)C(NC(=O)OC(C)(C)C)C(C)O)C(C)C)C(=O)NCc1ccc(F)cc1 (stereo not shown) 97

---

EXPERIMENTAL TARGET: γ-secretase (Homo sapiens, UniProt P49768)
EXPERIMENT: Aβ secretion by C99 cells (HEK293 stably expressing APP-C99), γ-secretase inhibitory effect, Aβ ELISA of culture supernatant
Assay type: cell-based
CONDITION PARAMETERS: HEK293, 24 h, Example 8; exposure 1 μmol/L, 24 h; read-out: Aβ (1-40) secretion rate of C99 cells
Kindly state activity at 1 µM for each of the entries shown.
Kindly provide the numeric value in % only, without the unit symbol.

Please look up its activity at 1 µM: CSCCC(NC(=O)C(NC(=O)C(CC(C)C)CC(O)C(NC(=O)OC(C)(C)C)C(C)O)C(C)C)C(=O)NCc1ccccc1 (stereo not shown) [TLVM-5] 5

Please look up its activity at 1 µM: CSCCC(NC(=O)C(NC(=O)C(CC(C)C)CC(O)C(NC(=O)OC(C)(C)C)C(C)O)C(C)C)C(=O)NCc1ccc(F)cc1 (stereo not shown) [TLVM-9] 8

Please look up its activity at 1 µM: CSCCC(NC(=O)C(NC(=O)C(CC(C)C)CC(O)C(NC(=O)OC(C)(C)C)C(C)O)C(C)C)C(=O)NC(C)c1ccccc1 (stereo not shown) [TLVM-8] 1

Please look up its activity at 1 µM: CCCCNC(=O)C(CCSC)NC(=O)C(NC(=O)C(CC(C)C)CC(O)C(NC(=O)OC(C)(C)C)C(C)O)C(C)C (stereo not shown) [TLVM-7] 8

---

Test system: C99 cells
EXPERIMENT: Cytotoxicity on C99 cells, cell viability by Cell Counting Kit-8
Format: cell-based, human
CONDITION PARAMETERS: exposure 100 μmol/L, 24 h
Kindly state Cell viability of C99 cells for each of the entries shown.
Kindly provide the numeric value in % only, without the unit symbol.

Please look up its Cell viability of C99 cells: CCCCNC(=O)C(CCSC)NC(=O)C(NC(=O)C(CC(C)C)CC(O)C(NC(=O)OC(C)(C)C)C(C)O)C(C)C (stereo not shown) 96

Please look up its Cell viability of C99 cells: CSCCC(NC(=O)C(NC(=O)C(CC(C)C)CC(O)C(NC(=O)OC(C)(C)C)C(C)O)C(C)C)C(=O)NCc1ccccc1 (stereo not shown) 46

Please look up its Cell viability of C99 cells: CSCCC(NC(=O)C(NC(=O)C(CC(C)C)CC(O)C(NC(=O)OC(C)(C)C)C(C)O)C(C)C)C(=O)NC(C)c1ccccc1 (stereo not shown) 8

Please look up its Cell viability of C99 cells: CSCCC(NC(=O)C(NC(=O)C(CC(C)C)CC(O)C(NC(=O)OC(C)(C)C)C(C)O)C(C)C)C(=O)NCc1ccc(F)cc1 (stereo not shown) 57
